The following binders are shown together with reported KD Relative to Dupilumab values.
subject_of_test: T1, human IL-4Rα (human, UniProt P24394 26-232)
T1 construct: also called Hu IL-4Rα; hIL-4Rα
T1 sequence: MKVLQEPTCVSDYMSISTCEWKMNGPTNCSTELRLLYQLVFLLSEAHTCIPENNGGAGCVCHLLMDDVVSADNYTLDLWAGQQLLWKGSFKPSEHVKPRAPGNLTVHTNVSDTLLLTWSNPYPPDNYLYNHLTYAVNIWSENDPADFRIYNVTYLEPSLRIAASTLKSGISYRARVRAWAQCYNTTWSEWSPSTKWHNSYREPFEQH
assay_procedure: SPR, Carterra LSA;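 note: antibodies captured on an anti-human Fc sensor chip, antigen injected at several concentrations, association and dissociation rates fitted with a 1:1 Langmuir model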
Response field accepts a number only; no unit should be typed.

Use these answered entries as a reference point.
binder: Construct 32 (mAb446) (antibody, IgG4, V domains shown, VH/VL only) VH: EVQLVESGGGLEQPGGSLRLSCAGSGFTFRDFAMTWVRQAPGKGLEWVSSVSGDGGNTYYADSVKGRFTISRDNSKNTLYLQMNSLRAEDTAVYYCAKDRLSVTVRPRYYGLDVWGQGTTVTVSS VL: DIVMTQSPLSLPVTPGEPASISCRSSQSLLYSNGYNYLDWYLQKSGQSPQLLIYLSSNRASGVPDRFSGSGSGTDFTLKISRVEAEDVGFYYCMQAFQAPYTFGQGTKLEIK
KD Relative to Dupilumab: 1.04

binder: Construct 40 (mAb476) (antibody, IgG4, V domains shown, VH/VL only) VH: EVQLVESGGGLEQPGGSLRLSCAGSGFTFRDFAMTWVRQAPGKGLEWVSSVSGDGGNTYYADSVKGRFTISRDNSKNTLYLQMNSLRAEDTAVYYCAKDRLSKTIRPRYYGLDVWGQGTTVTVSS VL: DIVMTQSPLSLPVTPGEPASISCRSSQSVLYSIGYNYVDWYLQKSGQSPQLLIYLGNKRASGVPDRFSGSGSGTDFTLKISRVEAEDVGFYYCMQAYQSPYVFGQGTKLEIK
KD Relative to Dupilumab: 1.11

binder: Construct 41 (mAb478) (antibody, IgG4, V domains shown, VH/VL only) VH: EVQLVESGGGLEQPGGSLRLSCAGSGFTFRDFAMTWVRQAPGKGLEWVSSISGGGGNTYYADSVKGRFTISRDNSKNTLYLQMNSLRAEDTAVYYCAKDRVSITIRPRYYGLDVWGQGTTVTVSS VL: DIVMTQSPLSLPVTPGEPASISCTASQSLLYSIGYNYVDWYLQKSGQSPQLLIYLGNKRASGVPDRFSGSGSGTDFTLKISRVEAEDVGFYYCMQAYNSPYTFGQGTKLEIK
KD Relative to Dupilumab: 0.86

binder: Construct 26 (mAb434) (antibody, IgG4, V domains shown, VH/VL only) VH: EVQLVESGGGLEQPGGSLRLSCAGSGFTFRDFAMTWVRQAPGKGLEWVSSISGGGGSTYYADSVKGRFTISRDNSKNTLYLQMNSLRAEDTAVYYCAKDRLSIAVRPRYYGLDVWGQGTTVTVSS VL: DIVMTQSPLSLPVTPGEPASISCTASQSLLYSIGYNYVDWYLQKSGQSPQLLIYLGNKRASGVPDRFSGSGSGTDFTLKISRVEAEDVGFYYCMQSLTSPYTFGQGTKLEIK
KD Relative to Dupilumab: 0.78

binder: Construct 24 (mAb432) (antibody, IgG4, V domains shown, VH/VL only) VH: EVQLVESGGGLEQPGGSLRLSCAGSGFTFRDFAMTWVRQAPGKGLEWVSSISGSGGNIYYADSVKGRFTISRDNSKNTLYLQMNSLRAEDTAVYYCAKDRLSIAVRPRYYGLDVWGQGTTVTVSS VL: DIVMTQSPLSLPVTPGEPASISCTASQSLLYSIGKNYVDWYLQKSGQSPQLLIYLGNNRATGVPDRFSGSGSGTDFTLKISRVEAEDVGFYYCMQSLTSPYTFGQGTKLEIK
KD Relative to Dupilumab: 0.79

For the binder shown here, Construct 2 (mAb411) (antibody, IgG4, V domains shown, VH/VL only) VH: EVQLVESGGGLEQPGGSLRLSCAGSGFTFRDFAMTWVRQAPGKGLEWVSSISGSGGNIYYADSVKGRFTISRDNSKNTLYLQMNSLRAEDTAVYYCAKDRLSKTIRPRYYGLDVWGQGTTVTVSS VL: DIVMTQSPLSLPVTPGEPASISCTASQSLLYSIGYNYVDWYLQKSGQSPQLLIYLGSKRASGVPDRFSGSGSGTDFTLKISRVEAEDVGFYYCMQALTTPYTFGQGTKLEIK , give the reported KD Relative to Dupilumab.
1.61
